target: Human complement C1s enzyme (Homo sapiens, UniProt P09871); construct: purified from human serum, Complement Technology, Inc; purchased Complement Technology, Inc; host or cells: human serum (plasma-derived native protein); experiment: Human C1s enzyme assay; type: biochemical; settings: human complement C1s enzyme 1.16 nM, substrate Z-L-Lys-SBzl, A405; read-out: IC50 (Stars)
Sequence (P09871 438-688 limits assumed): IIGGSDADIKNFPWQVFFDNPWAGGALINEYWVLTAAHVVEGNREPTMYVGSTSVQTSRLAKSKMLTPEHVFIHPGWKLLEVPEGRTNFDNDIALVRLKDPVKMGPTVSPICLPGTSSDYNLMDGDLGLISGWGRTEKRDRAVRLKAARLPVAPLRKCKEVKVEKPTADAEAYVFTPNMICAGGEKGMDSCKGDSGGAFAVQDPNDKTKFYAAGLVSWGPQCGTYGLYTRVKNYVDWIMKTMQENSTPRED
Sequence (P09871 16-437 partner limits assumed): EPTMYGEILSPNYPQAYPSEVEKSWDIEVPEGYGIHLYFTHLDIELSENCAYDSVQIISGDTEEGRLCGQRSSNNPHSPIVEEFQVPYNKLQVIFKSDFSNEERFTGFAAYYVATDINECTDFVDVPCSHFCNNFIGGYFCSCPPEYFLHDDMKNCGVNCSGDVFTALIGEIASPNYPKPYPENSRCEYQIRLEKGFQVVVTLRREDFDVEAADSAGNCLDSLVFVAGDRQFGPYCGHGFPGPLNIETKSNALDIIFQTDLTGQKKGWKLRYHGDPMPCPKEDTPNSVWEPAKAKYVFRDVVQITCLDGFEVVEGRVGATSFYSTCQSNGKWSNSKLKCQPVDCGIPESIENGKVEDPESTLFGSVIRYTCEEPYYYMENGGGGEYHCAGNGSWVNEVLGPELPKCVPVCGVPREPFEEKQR
pIC50: −log10 of the molar value.
This listing pairs molecules with measured pIC50.

C[C@@H](Nc1ncc(C2CCCC2)n(CC(=O)NCc2cc3cnccc3[nH]2)c1=O)c1ccc2oc3ccccc3c2c1 | > 7.00
C[C@@H](Nc1cncn(CC(=O)NCc2cc3cnccc3[nH]2)c1=O)c1ccc2c(c1)-c1ccccc1C2(F)F | 6.00 to 7.00
Cn1cc(-c2ncc(NCc3ccc4oc5ccccc5c4c3)c(=O)n2CC(=O)NCc2cc3cnccc3[nH]2)cn1 | > 7.00
C[C@@H](Nc1cnc(N2CCN(C)CC2)n(CC(=O)NCc2cc3cnccc3[nH]2)c1=O)c1ccc2oc3ccccc3c2c1 | > 7.00
O=C(Cn1c(-c2ccccc2)ncc(NCc2ccc3oc4ccccc4c3c2)c1=O)NCc1cc2c(s1)CNCC2 | > 7.00

For the molecule `O=C(Cn1c(-c2ccccc2)ncc(NC(=O)c2ccc(Oc3ccccc3)cc2)c1=O)NCc1cc2cnccc2[nH]1` , the measured pIC50 on Human complement C1s enzyme (Homo sapiens, UniProt P09871) was > 7.00

Entry `C[C@H](Nc1ncc(-c2ccccc2F)n(CC(=O)NCc2cc3cnccc3[nH]2)c1=O)c1ccc2oc3ccccc3c2c1` , Human complement C1s enzyme (Homo sapiens, UniProt P09871) data, pIC50 value: > 7.00

Measured pIC50 for this entry `C[C@@H](Nc1cnc(N2CC3(C2)CC(F)(F)C3)n(CC(=O)NCc2cc3cnccc3[nH]2)c1=O)c1ccc2oc3ccccc3c2c1` on Human complement C1s enzyme (Homo sapiens, UniProt P09871): < 6.00

Bench note, Human complement C1s enzyme (Homo sapiens, UniProt P09871): entry `COC[C@H]1CN(c2ncc(N[C@H](C)c3ccc4oc5ccccc5c4c3)c(=O)n2CC(=O)NCc2cc3cnccc3[nH]2)CCO1` , its pIC50 = 6.00 to 7.00

Measured pIC50 for this entry `C[C@@H](Nc1cnc(C2CCCC2)n(CC(=O)NCc2cc3cnccc3[nH]2)c1=O)c1coc(-c2ccccc2)n1` on Human complement C1s enzyme (Homo sapiens, UniProt P09871): 6.00 to 7.00

Entry `Cc1cc(F)cc(C)c1Nc1cnc(-c2ccccc2)n(CC(=O)NCc2cc3cnccc3[nH]2)c1=O` ; assay system Human complement C1s enzyme (Homo sapiens, UniProt P09871); pIC50 recorded at > 7.00

Value sought: pIC50, system Human complement C1s enzyme (Homo sapiens, UniProt P09871), item C[C@@H](Nc1cnc(N2CCCC(F)C2)n(CC(=O)NCc2cc3cnccc3[nH]2)c1=O)c1ccc2oc3ccccc3c2c1 (some centres unmarked) . Result: > 7.00

The molecule `CP(=O)(O)c1ccc(-c2ncc(NCCCc3ccccc3)c(=O)n2CC(=O)NCc2cc3cnccc3[nH]2)cc1` on Human complement C1s enzyme (Homo sapiens, UniProt P09871): pIC50 was > 7.00

Measured on Human complement C1s enzyme (Homo sapiens, UniProt P09871), `O=C(COc1cc(C(=O)NCc2ccc3oc4ccccc4c3c2)nc(-c2ccccc2)n1)NCc1cc2cnccc2[nH]1` has a documented pIC50 of < 6.00

Reference source for all entries: patent US20260184707A1
